# Tested on: OVCAR-3
# PROTOCOL: NCI tumour cell line growth inhibition, 48 h
The source made the active and inactive calls. No stated cut-off is given here; in the data, active = GI50 up to about 1.1 µM and inactive = higher.
Form entry, call: pick from 1 (active), 0 (inactive)

For orientation, consider the following solved cases.
| COMPOUND | ASSIGNED_CATEGORY |
| --- | --- |
| CC(C)c1ccc(/C=C(\NC(=O)c2ccccc2)c2nc3ccccc3[nH]2)cc1 | 0 |
| Cc1ccc(Nc2nc(C)c(C(=O)CC(=O)C(=O)Nc3ccc(Cl)cc3)s2)cc1 | 0 |
| C[N+](C)(C)CC(=O)N/N=C(\Cc1nc2ccc([N+](=O)[O-])cc2nc1O)C(=O)Nc1nc2ccc([N+](=O)[O-])cc2s1 | 0 |
| CC(C)(CN1CCCCC1)C(/C=C/c1ccc(Cl)c(Cl)c1)=N\NC(=O)N/N=C(/C=C/c1ccc(Cl)c(Cl)c1)C(C)(C)CN1CCCCC1 | 0 |
| CN(C)CCN(C)c1ccc2c(=O)n(CCN(C)C)c(=O)n3c4ccccc4c(=O)c1c23 | 0 |
| CN(C)c1nc(N)nc(CS)n1 | 0 |

QUERY: For this compound, state the assay outcome: CC1(c2nc3ccccc3[nH]2)CCC(CO)C(C)(C)O1 (stereo unspecified)
RESULT: 0

QUERY: Per the records of this test, what outcome belongs to `S=C(NCCc1ccccn1)N/N=C(\c1ccccc1)c1ccccn1` ?
RESULT: 1

QUERY: Outcome logged for `C/C=C/c1cc2c(c(=O)o1)C(=O)[C@@H](O)[C@H](C)O2` in this assay:
RESULT: 0

QUERY: Recorded call for CN1CCC2(c3ccccc3)CC(=O)/C(=C/c3ccc(Cl)c(Cl)c3)C1C2.[O-][Cl+3]([O-])([O-])O (stereo unspecified) ?
RESULT: 0

QUERY: Hey, what did the test say about `CCCCCC/C=C\CCCCCCCCCC1=CC(=O)C=C(OC)C1=O` ?
RESULT: 0
